Molecular target: furin, P09958;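 note: purified furin at 1:10 enzyme:substrate in 50 mM HEPES pH 7.5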
Sequence (P09958 whole entry): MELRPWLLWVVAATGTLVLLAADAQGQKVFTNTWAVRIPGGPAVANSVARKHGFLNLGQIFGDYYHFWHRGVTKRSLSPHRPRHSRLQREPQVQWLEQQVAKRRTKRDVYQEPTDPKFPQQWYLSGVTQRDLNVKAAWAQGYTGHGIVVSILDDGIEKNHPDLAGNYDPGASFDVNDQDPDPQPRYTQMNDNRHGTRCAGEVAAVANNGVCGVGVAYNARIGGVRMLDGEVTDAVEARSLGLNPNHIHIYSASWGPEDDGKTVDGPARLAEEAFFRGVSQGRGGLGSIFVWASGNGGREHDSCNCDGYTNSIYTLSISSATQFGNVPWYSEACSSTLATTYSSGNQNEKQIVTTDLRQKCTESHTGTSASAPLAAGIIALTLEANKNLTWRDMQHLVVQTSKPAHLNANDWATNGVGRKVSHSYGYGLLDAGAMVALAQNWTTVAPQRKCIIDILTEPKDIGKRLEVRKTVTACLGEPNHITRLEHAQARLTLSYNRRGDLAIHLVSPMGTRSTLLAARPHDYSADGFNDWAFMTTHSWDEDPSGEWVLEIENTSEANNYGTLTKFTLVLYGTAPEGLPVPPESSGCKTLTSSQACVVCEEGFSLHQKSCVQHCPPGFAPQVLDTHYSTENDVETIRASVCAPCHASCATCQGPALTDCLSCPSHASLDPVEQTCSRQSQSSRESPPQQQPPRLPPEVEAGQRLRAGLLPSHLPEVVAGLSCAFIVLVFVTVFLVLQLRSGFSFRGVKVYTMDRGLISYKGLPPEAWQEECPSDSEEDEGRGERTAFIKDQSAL
Test: furin cleavage Z-score vs untreated control; higher = more cleavage, active = 3.5 or more, inactive = 1 or less, 8 variable residues between constant flanks
Settings: 30 min
The other results are listed elsewhere or left out. How many sequences the whole screen found active is unknown.
quantity name: furin cleavage Z-score

Some solved cases for reference:
- CALGALTGTYAGNASASA [HC631]: 0.51 (inactive)
- CALPGRDGRDAGNASASA [FS-457]: 0.0293 (inactive)
- CAKAARAKKIAGNASASA [FS-600]: -0.411 (inactive)

Consider the record given below.
Exercise: Entry CAVKGRGRRDAGNASASA [FS-889] has what furin cleavage Z-score?
Solution: 8.49 (active)
